assay: protease stability score; higher = more stable; yeast display proteolysis, trypsin and chymotrypsin;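 also: log10 excess protease needed over predicted unfolded state with 0 meaning unfolded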
attribute-measured: protease stability score

>>> print(df.to_string())
                              sequence_data  reported_result
0  DEDERQDLARKYNKALKQGDSKKFEELVDKHVKVEVGETRFHGREQASKNFRELVDNFDEFEVKSLEVHGESVTVEAVARINGRTANIRFQRTIHNGKNQVVKLNPDDMRRNLK           -0.134
1  DDEVAEELRDIVHNGNWEEMSRNADKNAKVTIGDKQVHGRESAVRVLRIWQKQFDHIQIDRIDKHPGRVRWNARANVNGREVDYHARIHVKNGKVTDVTMEFTDPSQKRQFNRDLN            0.205
2  DEHNVELARKLRSAVEKNSEKEAKNNIDKDVRAQYGDQEINGREHFAEWVQRLTHHIQWEIKSVTVRVTNGRVDVKMHVREEQNGKPREMDVKMTVVFDNGRIENVQVKKHG            0.448
3  DEEDVKRAERFQKHYQQGNTEEMRKLLDKNARIEVGDKTLHGRDDAKDKLRKNLDNWRFSMDSVDNKLKNGQVRIDIKYRMVINGRPFSITYKLNVKFENGKVQFMEDRISEDDQRHLEK            0.582
4  DKKQVHDVARTLVQYYVSGNSERVKQLGKEDVELHAGDRTYHGVDQMAKVVEQFKKYGVELEVKDVKVDGNRVTARVQFHKAGTTWEFKVDVQADGGKVDQVRVNVTEEAIKHIQHG            0.797

* * *

Readings of protease stability score for the listed sequences
test: protease stability score; higher = more stable; yeast display proteolysis, trypsin and chymotrypsin;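 also: log10 excess protease needed over predicted unfolded state with 0 meaning unfolded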
attribute-measured: protease stability score

                               sequence_data  reported_result
 0  DKHAAQVVLEIMHAVDTGNENEVMKLIDPNARVEYGDKSITGREDIARHLIHDAKHINRRWSLKDIDVQGEKVFIKFEYKTNKNGRPDKADVNLEAKAHNGTVTTMRLQETR            0.368
 1  DEEHARELVENFKRNNWQEFEKMADKDVRAHVGDWNVHGRETFSRMMKHLVDQIDHISVDSVDVDEDTVEIHFSFDINGQDVTAVLRVELHNGKIKSMELDARDENARDVLRKVWR            0.099
 2  DETEDKKAQQLAKAINDGDEHDVRKMMDKDVKVDVGDKQLHGREQAAKWMSRHRREQRRTIEVTDVKMHGEKAELDANLRVDVNGQPRTHRVRIIVSITNGRLQHLEIHMDPRFEQSVQS            -0.25
 3  DEEAQKRAQTFFHILEHGDPKKLSKLFDKDAKFVVGEQRINGMQQYEQWFRDVYKKIRVTMKLVSVHVTGNKIDIKAKVEWHVNGRPLTFDLDIKINFHNGKMKEAVFHVDSDFLRKLKR             0.63
 4  DEEARRVWHKLMDALRTGDPEKFRNNADPNARIQYGNETIHGMRDNARTVMTMLHRLDVEWEIKDVKVRPNRIDVIYVLRVHIDGKPYQVHIQADATFHNGKLQSIRKRVDEDEQRKLDR            0.379
 5  DERHEAEKFAQHWMEVWKKGNHTEISKLIDENARVEVGDQKYHGRSQVKTRARQEVERADHVDYTIRSVKVTGNRIDINAQQVFRVNGTEDDQTRKIVLRRQGDKVVVQSIQAG           -0.159
 6  EEDNRKHAEDIWRAIRKGDEERLKQLFDKDVKFHVGEKEIHGRENYARSVKERREEIKWSVTLDDVHVRGEKIVIRYTFTENNNGRPRHNVQVLEMTVTNGRVVNVDAKDDK           -0.148
 7  DEKEDLTRWIEQFVHNLEHGDEERLSQLADPNARFKYGDRTLHGMENAIKTLADVMRRVDQVRIRINDITHHENRVIVDLSFVLNHNGQERHYNAKMVAYIHNGTFRIETASMK            0.929
 8  DDHEKANKVVSKLVEANRTGDEKKFVDMADPNVQLNIGDQRVHGREQAEKFARDFHTRFDHLDVKIKDVDVQGEKLELDVKMKVHFDGRTHEINMRLELQRNNGRVKLVRLHIP            0.097
 9  DEKEMQEFAKEVVKMLQTGDERKNERNVDKDVRVKIGEKVLHGREDNSKWIQEWRDRVDHIRIDHVHVHGEKVIVTVTAVVNGVEVEFQMVMEVHNGRAENVQVKYRNPDELRRFKS           -0.263
10  DEDSHKKLLEEMKDILNHGNFKNMLELADKNVRMQVGDKQYTGHSEFEDFLEHQRRQIDHLQVTDFKVSGENLVLTATANVNGKHVTIRFVVFFENGKMVRMEVDPSFQKQLES             0.87

* * *

assay: protease stability score; higher = more stable; yeast display proteolysis, trypsin and chymotrypsin;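 also: log10 excess protease needed over predicted unfolded state with 0 meaning unfolded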
attribute-measured: protease stability score

                               sequence_data  reported_result
 0  EEDAVDRARKMFENLKTGNEDHFKEQFDPNATIRIGDQKVHGMENLKDHMRKVRKHMRVDFRRVDIKAENGRIDIKARADFSVNGRPVSQHFTARAVVSNGRFKSFELQVSEEDEKKVKS            0.606
 1  DDEKQHTIAKQLVEVLQQNDPDQQRDMVDENANIDIGDKTYQGQEDARKAMDELRRQIDHLTVTSFNVHNGRVEIRARARVNGTDVTVHIEAQLHNGRVKKMKIKYG           -0.196
 2  DERNLHVANEFWKVLTDGDPRRLMELVDPNAKIQYGDKTITGREEIRKKAEKDTKKSRFEVQVQDIRVTGDTANIHAVFNEDHNGQPSQDFYVVTMAMNGDKIRFMIQRKSK            0.483
 3  DERKAEQNARDLAQALITGDPKRVMDLADENAEVQYGDKTYSGRERLDEVVRSFRRAVDHVDVDDIKEKGDHLRIKMTIQHNGQTRQVTLDIRVKNGKAEQIKFDFTDKDWYRRAIK            0.344
 4  DEEDEARKMMEELDKAWKTGDSERYAQLLDPNARMVIGDKEYHGRDDVRKWFHEMLRRVDHVQLHLTSIDIRNGKVDARAEVRLNHNGKDTSDTVIFRLQHDNGHIKIRSVKNK            0.251
 5  DEEELKHVAELILKGDEKELSKMMDEDVRVHIGNKEYHGREQAEEAVKTLVDRADHFQVHDMRTSEGQIHVQLVVNINGENVNMYFVAEVHNGRIKEISARARDPREEEKFNKLLG             1.68
 6  DEDAHRRASTLMTAIENNDPHKVMQMFDEDAKVDVGDKRVSGRERQAEEERERNTQSRVRYKSYKIDAQGNKVRVHADFEVHHNGRPDRKRMKAVFNYDNGKIKQATVKDDK           -0.235
 7  DSEDLVRKFITEWEQAVQQGDEKQLQELMDEDAHVSVGDTKLHGREDIARELAEQIRHADHVQFRIESLSVHGDHVNLNQKVRYKHNGKTDSSRYRLQAIAHGDKVTLKSFHDG            -0.28
 8  DEDVVDEFRRAIESNDFDRLVELADENAKADIGNKTVRGRDEMKDLMTSQKRRVDHLQVTSFSIDGDKLTVRYIANIDGHKIDNVVRFVAHNGKLKHMEVRARSEEQQKTLEKLIG            0.059
 9  DDEERRKLADDLIKILQTGSSNDVRKLVDPNAKAHYGEKDFHGERELAKFMKEIADNVDHIEIETMEVHGDRVKIVMVIVHNGKQRRFVMVLVVHNGRIKKASQTSQ             1.46
10  DEDSEAHKLLRELEKVLSTGDEDKMRRLADPNASIRIGDTQIRGRTQIQDHVKRHKEHVDKVSIDVKEVTAQGNKANMKYVIRVQINGRTHQEQVRVDVDLQGDKFKIKQWTEG            0.055

* * *

assay: protease stability score; higher = more stable; yeast display proteolysis, trypsin and chymotrypsin;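 also: log10 excess protease needed over predicted unfolded state with 0 meaning unfolded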
attribute-measured: protease stability score

                               sequence_data  reported_result
 0  DEERNELAEHVVKAWHHNDPDRVQKLVDPNVRFEIGDKEVHGREEYARIQRTEKDQWDLQIEVKHITVHNGRVDVDFDWRIERDGRPRTNQQVVIFEVDNGKVKRVSFQERK           -0.279
 1  DQEVREYIKRVYSTGDPDELNKLIDKDVRMRVGDKEVEGRETVQTIMRDWMTRVDDIKVHSYDVRGNKANYDAQYVFDGRSARFVIHIEFHNGRVKHVVVEATNEEVKQLLRDMLS             1.33
 2  DKKEHQEAAETFDRALKRGDPDTAMSLFDKDARANVGDKTYQGSEKLSEAMHRLSEEADRFHVRDVHFTNGEVSVNMYLNVNGKRVQVDVHIELSNGRAKEVTFNPDQLNEMQN           -0.119
 3  DEDREQEMLEKMVQIWEEGDEEKMVRLADPNVTVRVGDKNVHGRKHLREELQKERKQVDHFYVRHITIHNGTVNLDVEYNHNGQREQATVIAKVHDGRIKELSVHSS           -0.204
 4  EEDELRKIKDLLRHGDFETLNRQAPPDATQTVGDQEFTGWEKLHKIWKDLKDRIDHLDWKRITISGETIEARYEFDVDGQRIDMSFRMEVHNGRIQHLEQRATDSDLQKRLKDVIE            0.069
 5  DEEKIDRLLHEVVKAYLSGHSEKLKKLLKEDGQLHALSQTYHGKEQVMKVAEEFKRYGVELQIQDQKTEGDTLKVKAQAHKGGTTWEFEVKVKADGGKADELTIKVSEEAHKMIQRG           -0.298
 6  DEDNLRDAMEVYHQNDPDKAVKMADEDVKVVVGDRKWNGREDFEEAMRTFNQRVDHIEYKSMDVSNGQISIDVVINVDGQNARFILNIEIHNGKIKSLRYQWRNENVRQVLTEIFQ            0.795
 7  DHKQEATKNLKKFEDVMKTNDPEKAKNLADENVRVQVGDKTVHGKEKMVSTMLEEMRKVDHFSVHLQEVSFHGDKLNLSYEFVLNQNGKERKDVRVFHAANHNGRFLVEELHQG           -0.322
 8  DEERADELVELLTNNNFQSLADNADPNASIEYGDKTIRGRDEANKFLQNIERRADHVEIKSLKTKGNKIDIDLVVHVNGQKLRFKVEIKLRNGKVTHIRIQATSERDQRKFLEVVG             1.06
 9  EQTFVHEFIKNVQRNNEHELKKLIDPNAKVVVGNKTFQGREQINSQLKRFKDQVDEFHVDTYHDKGDKAVIDYVRVVDGQRVHYRLIITAENGKVKSMELHVTDPEQQKTIERVLD             1.33
10  DRNANKLATKVFTAYNRNNPKQLVENLDPNAELSYGDKEYHGRENMKKMVEDIKREMQLSIHIDHVDVHNGQARVEFVQENEHNGQPSRKHYVAHFDHENGRVKKLVFKESG           -0.106
